- measured target: UniProt Q92630
- Sequence (Q92630 whole entry, looked up): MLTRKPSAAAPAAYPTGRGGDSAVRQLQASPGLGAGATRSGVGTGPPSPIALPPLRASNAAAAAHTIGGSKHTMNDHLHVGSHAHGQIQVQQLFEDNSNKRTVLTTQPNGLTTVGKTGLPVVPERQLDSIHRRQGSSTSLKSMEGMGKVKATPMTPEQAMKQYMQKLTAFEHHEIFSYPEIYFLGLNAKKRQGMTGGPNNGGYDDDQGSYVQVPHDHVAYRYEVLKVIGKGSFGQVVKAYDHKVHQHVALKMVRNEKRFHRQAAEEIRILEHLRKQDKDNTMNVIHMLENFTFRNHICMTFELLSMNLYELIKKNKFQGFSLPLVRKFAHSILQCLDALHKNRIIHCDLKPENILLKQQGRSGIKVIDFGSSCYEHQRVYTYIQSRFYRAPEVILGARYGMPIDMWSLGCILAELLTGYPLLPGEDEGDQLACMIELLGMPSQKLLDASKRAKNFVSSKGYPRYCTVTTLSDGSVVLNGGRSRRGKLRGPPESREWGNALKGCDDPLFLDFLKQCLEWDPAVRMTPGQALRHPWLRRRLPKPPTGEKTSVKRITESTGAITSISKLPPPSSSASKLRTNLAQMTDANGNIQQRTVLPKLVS
- assay summary: radiometric filter-binding kinase assay
- stated conditions: compound 10.0 µM
Reported values of residual activity for individual entries
measured attribute: residual activity (%)

O=S(=O)(c1ccc(F)c2nonc12)N1CCN(c2ncc(C(F)(F)F)cc2Cl)CC1 ... 107
CN1C(=O)[C@@H](Cc2c[nH]c3ccccc23)NC1=S ... 107
N#Cc1c(C2CCNCC2)cc(-c2c(O)cccc2OCC2CC2)nc1N ... 91
O=C(N[C@@H](COc1ccc2[nH]c(=O)[nH]c2c1)c1ccccc1)c1cccn(Cc2ccc(F)c(F)c2)c1=O ... 83
Oc1ccc2ccccc2c1SSc1c(O)ccc2ccccc12 ... 64
O=C(O)c1ccc(-c2c[nH]c3ncc(-c4ccccc4)cc23)cc1C1CCCC1 ... 2
Cc1ccc(Sc2cnc(Nc3cccc(Br)n3)s2)cc1C(=O)N1CCN(C(=O)CN)CC1 ... 80

###

- measured target: HIPK2 (human) (UniProt Q9H2X6)
- Sequence (Q9H2X6 whole entry, looked up): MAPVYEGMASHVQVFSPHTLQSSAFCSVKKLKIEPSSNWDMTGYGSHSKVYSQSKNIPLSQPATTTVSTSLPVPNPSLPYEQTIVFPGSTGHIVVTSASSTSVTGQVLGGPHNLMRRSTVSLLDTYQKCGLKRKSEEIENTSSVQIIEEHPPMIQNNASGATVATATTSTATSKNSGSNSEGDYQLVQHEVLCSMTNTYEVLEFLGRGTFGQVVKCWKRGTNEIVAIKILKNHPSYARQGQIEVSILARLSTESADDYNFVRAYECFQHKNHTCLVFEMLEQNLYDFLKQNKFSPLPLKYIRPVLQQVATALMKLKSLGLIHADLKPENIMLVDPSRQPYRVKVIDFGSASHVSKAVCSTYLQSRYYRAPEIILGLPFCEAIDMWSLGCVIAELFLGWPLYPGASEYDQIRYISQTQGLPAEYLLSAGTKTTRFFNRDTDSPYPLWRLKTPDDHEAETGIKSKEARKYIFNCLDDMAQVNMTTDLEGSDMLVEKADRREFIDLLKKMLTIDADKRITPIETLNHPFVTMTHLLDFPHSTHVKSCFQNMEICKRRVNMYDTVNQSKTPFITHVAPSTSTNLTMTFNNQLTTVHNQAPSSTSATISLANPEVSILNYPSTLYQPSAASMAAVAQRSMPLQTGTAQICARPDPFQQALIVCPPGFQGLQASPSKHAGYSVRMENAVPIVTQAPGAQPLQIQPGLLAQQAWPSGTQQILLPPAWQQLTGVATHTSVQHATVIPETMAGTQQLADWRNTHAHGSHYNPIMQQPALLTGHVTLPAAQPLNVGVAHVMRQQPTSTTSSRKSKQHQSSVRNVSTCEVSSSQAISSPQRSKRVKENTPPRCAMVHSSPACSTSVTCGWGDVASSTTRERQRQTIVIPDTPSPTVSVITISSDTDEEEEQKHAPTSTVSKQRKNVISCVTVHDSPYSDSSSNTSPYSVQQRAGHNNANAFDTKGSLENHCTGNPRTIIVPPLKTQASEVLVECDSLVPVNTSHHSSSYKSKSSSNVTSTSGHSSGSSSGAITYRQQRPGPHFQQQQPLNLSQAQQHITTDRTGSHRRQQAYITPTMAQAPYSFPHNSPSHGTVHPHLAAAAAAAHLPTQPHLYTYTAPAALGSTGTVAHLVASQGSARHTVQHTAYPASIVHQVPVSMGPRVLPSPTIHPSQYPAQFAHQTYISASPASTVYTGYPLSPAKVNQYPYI
- assay summary: radiometric filter-binding kinase assay
- stated conditions: compound 1.0 µM
measured attribute: residual activity

COc1cc2ncn(-c3cc(OCc4ccccc4S(C)(=O)=O)c(C#N)s3)c2cc1OC ... 49%
O=c1c(O)c(-c2ccc(O)c(O)c2)oc2cc(O)c(O)c(O)c12 ... 62%
Cc1ccc(=O)n(-c2ccccc2)c1 ... 122%
NC(=O)c1cc2c(-c3cccc(-c4ccccc4)c3)cnc(N)c2s1 ... 22%
NC(=O)c1ccc(-c2ccc(Oc3cncc4sc(-c5nn[nH]n5)cc34)cc2)cc1 ... 64%
CN(C)C/C=C/C(=O)Nc1cccc(C(=O)Nc2ccc(Nc3nccc(-c4cccnc4)n3)cc2)c1 ... 46%
C[C@H]1CCCC(=O)CCC/C=C/c2cc(O)cc(O)c2C(=O)O1 ... 100%
CCNc1nc(Nc2cc(F)c(C(=O)N3CCOCC3)cc2OC)ncc1C(F)(F)F ... 88%
COc1cc(O)c2c(c1)/C=C/C[C@H](O)[C@H](O)C(=O)/C=C\C[C@H](C)OC2=O ... 82%
COc1cc(C(=O)N2CCOCC2)c(F)cc1Nc1ncc(C(F)(F)F)c(NC2CC2)n1 ... 70%

###

- measured target: MAPKAPK3 (human)
- assay summary: radiometric filter-binding kinase assay
- stated conditions: compound 1.0 µM
Please use class 1 whenever residual activity is not below 90%, and class 0 whenever it is.

O=C(NOCC(O)CO)c1ccc(F)c(F)c1Nc1ccc(I)cc1Cl (stereo unspecified) ... class 1
NC(=O)c1cc2c(-c3cccc(-c4ccccc4)c3)cnc(N)c2s1 ... class 0
Cn1nc(Nc2ccc(F)cc2)c2c(N)ncnc21 ... class 1
NC(=O)c1c(NC(=O)C2CC2)sc2c1CCCC2 ... class 1
COc1cc(O)c2c(c1)/C=C/C[C@H](O)[C@H](O)C(=O)/C=C\C[C@H](C)OC2=O ... class 1
COc1cc2ncn(-c3cc(OCc4ccccc4S(C)(=O)=O)c(C#N)s3)c2cc1OC ... class 1
Cc1ccc(-c2ccc3c(ccc4sc5c(c43)NC[C@@H](C)NC5=O)n2)cn1 ... class 0
NS(=O)(=O)OC[C@@H]1C[C@@H](n2ccc3c(N[C@H]4CCc5ccccc54)ncnc32)C[C@@H]1O ... class 1

###

- measured target: MAPKAPK2 (human) (UniProt P49137)
- Sequence (P49137 whole entry, looked up): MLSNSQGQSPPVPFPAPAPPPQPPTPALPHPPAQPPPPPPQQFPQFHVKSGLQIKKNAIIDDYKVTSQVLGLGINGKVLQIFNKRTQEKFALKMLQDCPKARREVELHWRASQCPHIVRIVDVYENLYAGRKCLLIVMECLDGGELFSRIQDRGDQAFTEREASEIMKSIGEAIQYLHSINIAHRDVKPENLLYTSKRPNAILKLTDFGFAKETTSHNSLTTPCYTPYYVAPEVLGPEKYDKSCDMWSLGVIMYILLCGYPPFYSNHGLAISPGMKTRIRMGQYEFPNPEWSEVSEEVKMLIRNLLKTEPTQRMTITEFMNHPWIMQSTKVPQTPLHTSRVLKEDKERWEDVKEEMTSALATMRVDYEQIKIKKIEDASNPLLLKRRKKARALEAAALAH
- assay summary: radiometric filter-binding kinase assay
- stated conditions: compound 0.01 µM
measured attribute: residual activity (%)

CNc1nc(-c2ccc3c(N)n[nH]c3c2)cc(N2C[C@@H](C(=O)NC3CCCCC3)CC[C@H]2C)n1 ... 104
COc1ccc(N(C(=O)Nc2c(C)cccc2C)c2cc(Nc3ccc(N4CCN(C)CC4)cc3)ncn2)c(OC)c1 ... 101
C/C(=C1/C(=O)Nc2ccc(NC(N)=O)cc21)c1ccc[nH]1 ... 86
CNC(=O)C1[C@H]2O[C@@](C)([C@@H]1N)n1c3ccccc3c3c4c(c5c6ccccc6n2c5c31)C(=O)NC4 (stereo partly specified) ... 19
COc1cc(O)c2c(c1)[C@H]1OC1C[C@H](O)[C@H](O)C(=O)/C=C\C[C@H](C)OC2=O (stereo partly specified) ... 93
O=C(Nc1nc2cc(C(F)(F)F)cc(NC3CC3)n2n1)c1cccnc1 ... 99

###

Reported values of residual activity for individual entries
- measured target: RPS6KA1 KD1 KD2 (human) (UniProt Q15418)
- Sequence (Q15418 whole entry, looked up): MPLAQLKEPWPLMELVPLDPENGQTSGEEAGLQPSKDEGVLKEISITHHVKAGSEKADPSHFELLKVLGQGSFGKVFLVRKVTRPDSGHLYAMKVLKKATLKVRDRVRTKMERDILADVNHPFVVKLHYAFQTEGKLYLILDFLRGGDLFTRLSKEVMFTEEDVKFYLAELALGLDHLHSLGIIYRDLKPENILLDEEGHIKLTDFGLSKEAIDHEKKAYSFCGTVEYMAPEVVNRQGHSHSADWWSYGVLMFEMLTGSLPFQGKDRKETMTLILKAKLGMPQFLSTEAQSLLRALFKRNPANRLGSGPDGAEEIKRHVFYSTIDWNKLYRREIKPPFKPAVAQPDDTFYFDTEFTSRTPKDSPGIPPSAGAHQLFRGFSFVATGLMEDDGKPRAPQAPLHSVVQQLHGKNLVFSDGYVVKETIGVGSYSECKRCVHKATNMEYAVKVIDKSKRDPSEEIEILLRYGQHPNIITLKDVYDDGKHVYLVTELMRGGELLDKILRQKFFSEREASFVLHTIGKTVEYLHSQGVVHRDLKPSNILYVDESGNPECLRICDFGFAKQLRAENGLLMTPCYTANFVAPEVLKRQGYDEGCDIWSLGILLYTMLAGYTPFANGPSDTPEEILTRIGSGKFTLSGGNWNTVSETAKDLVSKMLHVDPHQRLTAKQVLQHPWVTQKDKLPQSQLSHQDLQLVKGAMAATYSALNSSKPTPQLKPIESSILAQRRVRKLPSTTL
- assay summary: radiometric filter-binding kinase assay
- stated conditions: compound 10.0 µM
measured attribute: residual activity

CCc1cncnc1N1CCN(Cc2nc3cc(C(F)(F)F)ccc3[nH]2)CC1 ... 0%
CCn1c(-c2nonc2N)nc2cncc(CNC3CCNCC3)c21 ... 9%
O=C(NOCC(O)CO)c1ccc(F)c(F)c1Nc1ccc(I)cc1Cl (stereo not given) ... 98%
O=C(O)c1cc(N=Nc2ccc(S(=O)(=O)Nc3ccccn3)cc2)ccc1O ... 122%
NS(=O)(=O)OC[C@@H]1C[C@@H](n2ccc3c(N[C@H]4CCc5ccccc54)ncnc32)C[C@@H]1O ... 95%
NC(=O)c1ccc(-c2ccc(Oc3cncc4sc(-c5nn[nH]n5)cc34)cc2)cc1 ... 33%
NC1(c2ccc(-c3nc4ccn5c(=O)[nH]nc5c4cc3-c3ccccc3)cc2)CCC1 ... 62%
N#Cc1c(O)c2c(-c3ccc(-c4ccccc4O)cc3)csc2[nH]c1=O ... 80%
CN1C(=O)[C@@H](Cc2c[nH]c3ccccc23)NC1=S ... 92%
CCNc1nc(Nc2cc(F)c(C(=O)N3CCOCC3)cc2OC)ncc1C(F)(F)F ... 8%
O=S(=O)(c1ccc(F)c2nonc12)N1CCN(c2ncc(C(F)(F)F)cc2Cl)CC1 ... 90%
Cn1nc(Nc2ccc(F)cc2)c2c(N)ncnc21 ... 102%
O=C(O)c1ccc(-c2c[nH]c3ncc(-c4ccccc4)cc23)cc1C1CCCC1 ... 38%
N#Cc1c(C2CCNCC2)cc(-c2c(O)cccc2OCC2CC2)nc1N ... 6%
Cc1cc(SCc2sc(-c3ccc(C(F)(F)F)cc3)nc2C)ccc1OCC(=O)O ... 113%
O=C(NOC[C@H](O)CO)c1ccc(F)c(F)c1Nc1ccc(I)cc1Cl ... 102%
O=c1c(O)c(-c2ccc(O)c(O)c2)oc2cc(O)c(O)c(O)c12 ... 15%
C=CC(=O)N1CCC[C@@H](n2nc(-c3ccc(Oc4ccccc4)cc3)c3c(N)ncnc32)C1 ... 46%
NC(=O)c1c(NC(=O)C2CC2)sc2c1CCCC2 ... 95%
Nc1cccc2c1CN(C1CCC(=O)NC1=O)C2=O (stereo not given) ... 97%

###

- measured target: MAPK8 (human) (UniProt P45983)
- Sequence (P45983 whole entry, looked up): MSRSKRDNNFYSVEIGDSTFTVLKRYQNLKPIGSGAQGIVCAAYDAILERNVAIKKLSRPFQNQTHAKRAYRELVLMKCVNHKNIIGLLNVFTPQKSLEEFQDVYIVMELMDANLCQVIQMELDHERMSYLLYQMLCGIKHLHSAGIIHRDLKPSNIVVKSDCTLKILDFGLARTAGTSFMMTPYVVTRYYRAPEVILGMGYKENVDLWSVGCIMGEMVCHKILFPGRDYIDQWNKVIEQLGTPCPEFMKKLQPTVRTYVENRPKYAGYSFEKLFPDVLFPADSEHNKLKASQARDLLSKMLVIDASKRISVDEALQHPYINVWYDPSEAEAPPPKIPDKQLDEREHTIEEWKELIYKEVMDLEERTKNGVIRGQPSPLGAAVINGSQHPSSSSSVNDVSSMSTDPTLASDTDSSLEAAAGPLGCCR
- assay summary: radiometric filter-binding kinase assay
- stated conditions: compound 0.01 µM
Reported values of residual activity for individual entries
measured attribute: residual activity (%)

C/C(=C1/C(=O)Nc2ccc(NC(N)=O)cc21)c1ccc[nH]1 ... 117
CNc1nc(-c2ccc3c(N)n[nH]c3c2)cc(N2C[C@@H](C(=O)NC3CCCCC3)CC[C@H]2C)n1 ... 92
COc1cc(O)c2c(c1)[C@H]1OC1C[C@H](O)[C@H](O)C(=O)/C=C\C[C@H](C)OC2=O (stereo partly specified) ... 104
CNC(=O)C1[C@H]2O[C@@](C)([C@@H]1N)n1c3ccccc3c3c4c(c5c6ccccc6n2c5c31)C(=O)NC4 (stereo partly specified) ... 91
COc1ccc(N(C(=O)Nc2c(C)cccc2C)c2cc(Nc3ccc(N4CCN(C)CC4)cc3)ncn2)c(OC)c1 ... 94
O=C(Nc1nc2cc(C(F)(F)F)cc(NC3CC3)n2n1)c1cccnc1 ... 87

###

- measured target: PAK7 (human) (UniProt Q9P286)
- Sequence (Q9P286 whole entry, looked up): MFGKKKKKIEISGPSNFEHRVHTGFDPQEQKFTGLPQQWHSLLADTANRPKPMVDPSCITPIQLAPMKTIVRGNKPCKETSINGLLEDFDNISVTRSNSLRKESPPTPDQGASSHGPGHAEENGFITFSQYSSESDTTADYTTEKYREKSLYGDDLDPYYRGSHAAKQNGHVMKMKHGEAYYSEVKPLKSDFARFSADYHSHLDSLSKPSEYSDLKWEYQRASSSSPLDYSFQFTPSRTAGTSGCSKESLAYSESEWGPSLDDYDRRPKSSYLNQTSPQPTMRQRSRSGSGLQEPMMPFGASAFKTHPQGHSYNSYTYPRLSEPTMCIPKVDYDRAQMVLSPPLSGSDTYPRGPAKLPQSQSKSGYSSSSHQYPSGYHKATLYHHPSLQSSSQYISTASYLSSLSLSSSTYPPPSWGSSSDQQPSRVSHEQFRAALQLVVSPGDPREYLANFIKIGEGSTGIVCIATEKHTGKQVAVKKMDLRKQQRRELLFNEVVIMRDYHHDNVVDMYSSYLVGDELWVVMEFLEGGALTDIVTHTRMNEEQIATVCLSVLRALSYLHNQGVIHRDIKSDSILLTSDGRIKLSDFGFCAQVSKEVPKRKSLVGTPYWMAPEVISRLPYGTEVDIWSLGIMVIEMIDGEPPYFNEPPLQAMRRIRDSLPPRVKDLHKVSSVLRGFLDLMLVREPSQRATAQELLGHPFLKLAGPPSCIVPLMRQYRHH
- assay summary: radiometric filter-binding kinase assay
- stated conditions: compound 0.01 µM
Reported values of residual activity for individual entries
measured attribute: residual activity

COc1ccc(N(C(=O)Nc2c(C)cccc2C)c2cc(Nc3ccc(N4CCN(C)CC4)cc3)ncn2)c(OC)c1 ... 95%
COc1cc(O)c2c(c1)[C@H]1OC1C[C@H](O)[C@H](O)C(=O)/C=C\C[C@H](C)OC2=O (stereo not given in full) ... 102%
O=C(Nc1nc2cc(C(F)(F)F)cc(NC3CC3)n2n1)c1cccnc1 ... 97%
CNc1nc(-c2ccc3c(N)n[nH]c3c2)cc(N2C[C@@H](C(=O)NC3CCCCC3)CC[C@H]2C)n1 ... 97%
CNC(=O)C1[C@H]2O[C@@](C)([C@@H]1N)n1c3ccccc3c3c4c(c5c6ccccc6n2c5c31)C(=O)NC4 (stereo not given in full) ... 17%

###

- measured target: MAP2K2 (human)
- assay summary: radiometric filter-binding kinase assay
- stated conditions: compound 10.0 µM
Label scheme for residual activity: band A = under 70%, band B = from 70% up to 90%, band C = 90% and over

O=C(N[C@@H](COc1ccc2[nH]c(=O)[nH]c2c1)c1ccccc1)c1cccn(Cc2ccc(F)c(F)c2)c1=O ... band C
CC(C)C[C@H](NC(=O)CNC(=O)c1cc(Cl)ccc1Cl)B1OC(=O)CC(CC(=O)O)(C(=O)O)O1 (stereo partly drawn) ... band C
Cc1ccc2c(c1)C(=O)[C@@]1(O)CCN(c3ccccc3)C1=N2 ... band B
CC(C)(C#N)c1ccc(N2C(=O)OCc3cnc4ccc(-c5cnc6ccccc6c5)cc4c32)cc1 ... band B
Cc1nc(-c2ccc(OCC(C)C)c(C#N)c2)sc1C(=O)O ... band B
Cc1ccc(=O)n(-c2ccccc2)c1 ... band A
COc1cc(C(=O)N2CCOCC2)c(F)cc1Nc1ncc(C(F)(F)F)c(NC2CC2)n1 ... band C
CCCCCc1ccc(/C=C/[C@H](O)[C@@H](CO)NC)cc1 ... band C
CCOC(=O)c1ccc(N2NC(=O)/C(=C/c3ccc([N+](=O)[O-])o3)C2=O)cc1 ... band A
N#Cc1c(O)c2c(-c3ccc(-c4ccccc4O)cc3)csc2[nH]c1=O ... band B
CC1=C(CO)C(=O)O[C@@H]([C@@H](C)[C@H]2CC[C@H]3[C@@H]4C[C@H]5O[C@]56[C@@H](O)C=CC(=O)[C@]6(C)C4CC[C@]23C)C1 (stereo partly drawn) ... band C
c1ccc2c(-c3cnn4cc(-c5ccc(N6CCNCC6)cc5)cnc34)ccnc2c1 ... band A
O=S(=O)(c1ccc(F)c2nonc12)N1CCN(c2ncc(C(F)(F)F)cc2Cl)CC1 ... band C
COC(=O)/C=C/C(=O)OC ... band C
NC(=O)c1ccc(-c2ccc(Oc3cncc4sc(-c5nn[nH]n5)cc34)cc2)cc1 ... band B
O=C(NOC[C@H](O)CO)c1ccc(F)c(F)c1Nc1ccc(I)cc1Cl ... band A
NC(=O)c1c(NC(=O)C2CC2)sc2c1CCCC2 ... band B
NS(=O)(=O)OC[C@@H]1C[C@@H](n2ccc3c(N[C@H]4CCc5ccccc54)ncnc32)C[C@@H]1O ... band C
N#Cc1c(C2CCNCC2)cc(-c2c(O)cccc2OCC2CC2)nc1N ... band B
NCC(=O)Nc1ccc(-n2nc(C(F)(F)F)cc2-c2ccc3c(ccc4ccccc43)c2)cc1 ... band C
CCCC(CCC)C(=O)O ... band C
Cc1ccc(-c2ccc3c(ccc4sc5c(c43)NC[C@@H](C)NC5=O)n2)cn1 ... band B
COc1cc2ncn(-c3cc(OCc4ccccc4S(C)(=O)=O)c(C#N)s3)c2cc1OC ... band A
C=CC(=O)N1CCC[C@@H](n2nc(-c3ccc(Oc4ccccc4)cc3)c3c(N)ncnc32)C1 ... band A
